Target: 17β-hydroxysteroid dehydrogenase type 2 (17β-HSD type 2) (Homo sapiens, UniProt P37059)
Construct: expressed in transfected cells; host or cells: MCF-7
Sequence (P37059 whole entry): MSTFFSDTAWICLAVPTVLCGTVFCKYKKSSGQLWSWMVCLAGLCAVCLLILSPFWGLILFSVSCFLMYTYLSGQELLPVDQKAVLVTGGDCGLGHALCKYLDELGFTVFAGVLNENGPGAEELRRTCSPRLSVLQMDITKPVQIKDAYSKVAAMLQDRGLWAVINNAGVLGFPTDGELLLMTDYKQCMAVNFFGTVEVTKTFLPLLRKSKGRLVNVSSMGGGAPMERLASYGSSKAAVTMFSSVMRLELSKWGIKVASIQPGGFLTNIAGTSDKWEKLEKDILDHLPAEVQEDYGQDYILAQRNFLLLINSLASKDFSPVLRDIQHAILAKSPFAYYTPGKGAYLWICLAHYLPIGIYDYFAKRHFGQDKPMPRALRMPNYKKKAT
Assay: Inhibition of 17β-HSD type 2 in MCF-7 cells stably expressing the isoenzyme (tritium labeled estradiol conversion, HPLC)
Format: cell-based
Details: MCF7; 10 μM test compound; MCF-7 cells expressing 17β-HSD type 2; 2 nM tritium labeled estradiol; read-out: % Inhibition HSD2 10 μM
Observable: inhibition at 10 µM (%)
Quick note: give the figure in %, leave out the unit.

inhibition at 10 µM measured on O=C(OCCn1c(-c2cccs2)nc2sc3c(c2c1=O)CCCC3)c1cccs1 [No. 69] = 11.9

inhibition at 10 µM measured on CCCCn1c(-c2cc(OC)c(OC)c(OC)c2)nc2sc3c(c2c1=O)CC(C)CC3=O (centres unmarked) [No. 692] = 21

inhibition at 10 µM measured on CCSC1=C(C=O)CCc2c1sc1nc(-c3ccc(OC)cc3)n(Cc3ccccc3)c(=O)c21 [No. 16] = 20.1

inhibition at 10 µM measured on CCCCn1c(-c2cccs2)nc2sc3c(c2c1=O)CCCC3=O [No. 134] = 11.6

inhibition at 10 µM measured on O=C1CCCc2c1sc1nc(-c3ccccc3)n(Cc3ccccc3)c(=O)c21 [No. 57] = 28.5

inhibition at 10 µM measured on COc1ccc(-c2nc3sc4c(Oc5ccccc5)c(C)ccc4c3c(=O)n2Cc2ccccc2)cc1 [No. 21] = 12.7

inhibition at 10 µM measured on CCCCn1c(-c2cc(OC)c(OC)c(OC)c2Br)nc2sc3c(c2c1=O)CC(C)C(Br)C3=O (centres unmarked) [No. 693] = 18.2

inhibition at 10 µM measured on COc1cc(-c2nc3sc4c(OC(C)=O)cccc4c3c(=O)n2Cc2ccccc2)c(Br)c(OC)c1OC [No. 50] = 39

* * *

Target: 17β-hydroxysteroid dehydrogenase type 3 (17β-HSD type 3) (Homo sapiens)
Construct: expressed in transfected cells; host or cells: MCF-7
Sequence (P37058 1-310): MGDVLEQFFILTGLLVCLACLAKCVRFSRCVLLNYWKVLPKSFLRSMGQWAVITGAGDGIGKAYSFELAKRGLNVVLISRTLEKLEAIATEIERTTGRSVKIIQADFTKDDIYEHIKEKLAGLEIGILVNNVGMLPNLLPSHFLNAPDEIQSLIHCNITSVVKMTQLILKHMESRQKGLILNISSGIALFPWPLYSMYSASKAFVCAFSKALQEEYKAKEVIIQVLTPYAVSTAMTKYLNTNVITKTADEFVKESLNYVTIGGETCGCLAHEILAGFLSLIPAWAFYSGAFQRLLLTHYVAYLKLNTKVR
Experiment: Inhibition of 17β-HSD type 3 in MCF-7 cells stably expressing the isoenzyme (tritium labeled androstenedione conversion, HPLC)
Type: cell-based
Settings: MCF7; 10 μM test compound; MCF-7 cells expressing 17β-HSD type 3; 2 nM tritium labeled androstenedione; read-out: % Inhibition HSD3 10 μM
Exercise: state measured inhibition at 10 µM for each of the molecules provided.
Quick note: give the figure in %, leave out the unit.

inhibition at 10 µM measured on CCCCn1c(-c2cccs2)nc2sc3c(c2c1=O)CCCC3 = 14.7

inhibition at 10 µM measured on O=C1CCCc2c1sc1nc(-c3ccccc3)n(Cc3ccccc3)c(=O)c21 = 57.3

inhibition at 10 µM measured on COc1cc(-c2nc3sc4c(OC)cccc4c3c(=O)n2CC(C)C)cc(OC)c1OC = 11

inhibition at 10 µM measured on CCCc1nc2sc3c(O)cccc3c2c(=O)n1Cc1ccc(Br)o1 = 67.3

inhibition at 10 µM measured on COc1cc(-c2nc3sc4c(O)cccc4c3c(=O)n2CC2CCCO2)c(Br)c(OC)c1OC (stereo not drawn) = 37.7

inhibition at 10 µM measured on COc1cc(-c2nc3sc4c(c3c(=O)n2Cc2ccco2)CCCC4=O)cc(OC)c1OC = 38.4

inhibition at 10 µM measured on COc1cc(-c2nc3sc4c(O)c(Br)ccc4c3c(=O)n2Cc2ccccc2)c(Br)c(OC)c1OC = 4.3

inhibition at 10 µM measured on CCCc1nc2sc3c(OC(C)=O)cccc3c2c(=O)n1Cc1ccc(Br)o1 = 71.1

inhibition at 10 µM measured on O=c1c2c3c(sc2nc(-c2ccccc2)n1Cc1ccccc1)CCCC3 = 41.9

inhibition at 10 µM measured on COc1ccc(-c2nc3sc4c(Oc5ccccc5)c(CO)ccc4c3c(=O)n2Cc2ccccc2)cc1 = 61.1

inhibition at 10 µM measured on CCCCn1c(-c2ccccc2OC)nc2sc3c(O)cccc3c2c1=O = 91.7

inhibition at 10 µM measured on COc1cc(-c2nc3sc4c(c3c(=O)n2-c2ccccc2)CCCC4)cc(OC)c1OC = 10.9

inhibition at 10 µM measured on COCc1nc2sc3c(Cl)c(C=O)c(C(=O)O)c(O)c3c2c(=O)n1Cc1ccccc1 = 82.3

inhibition at 10 µM measured on CCSC1=C(CO)CCc2c1sc1nc(-c3ccc(OC)cc3)n(Cc3ccccc3)c(=O)c21 = 100

inhibition at 10 µM measured on COCCn1c(-c2cc(OC)c(OC)c(OC)c2Br)nc2sc3c(O)cccc3c2c1=O = 49.4

inhibition at 10 µM measured on O=C1c2sc3nc(-c4ccccc4)n(Cc4ccccc4)c(=O)c3c2CCC1(Br)Br = 31.7

inhibition at 10 µM measured on O=C(OCCn1c(-c2cccs2)nc2sc3c(c2c1=O)CCC(Br)C3=O)c1cccs1 (stereo not drawn) = 36

inhibition at 10 µM measured on COc1cc(-c2nc3sc4c(c3c(=O)n2CC(C)C)CCCC4)cc(OC)c1OC = 48.9

* * *

Target: 17β-hydroxysteroid dehydrogenase type 2 (17β-HSD type 2) (Homo sapiens, UniProt P37059)
Construct: expressed in transfected cells; host or cells: MCF-7
Assay: Inhibition of 17β-HSD type 2 in MCF-7 cells stably expressing the isoenzyme (tritium labeled estradiol conversion, HPLC)
Type: cell-based
Settings: MCF7; 10 μM test compound; MCF-7 cells expressing 17β-HSD type 2; 2 nM tritium labeled estradiol; read-out: % Inhibition HSD2 10 μM
Assign class by inhibition at 10 µM: not lower than 20% means yes (1); lower than 20% means no (0).

Determine whether this compound has inhibition at 10 µM no lower than 20%: COc1cccc(-c2nc3sc4c(OC(C)=O)cccc4c3c(=O)n2Cc2ccccc2)c1
yes (1)

Determine whether this compound has inhibition at 10 µM no lower than 20%: COCCn1c(-c2cccs2)nc2sc3c(c2c1=O)CCC(Br)C3=O (stereo not drawn)
yes (1)

Determine whether this compound has inhibition at 10 µM no lower than 20%: CCCCn1c(-c2cc(OC)c(OC)c(OC)c2Br)nc2sc3c(O)cc(C)cc3c2c1=O
no (0)

Determine whether this compound has inhibition at 10 µM no lower than 20%: COCc1nc2sc3c(Cl)c(C=O)c(C(=O)O)c(O)c3c2c(=O)n1Cc1ccccc1
yes (1)

Determine whether this compound has inhibition at 10 µM no lower than 20%: CCOC(=O)C1=Cc2sc3nc(-c4ccc(OC)cc4)n(Cc4ccccc4)c(=O)c3c2CC1
no (0)

Determine whether this compound has inhibition at 10 µM no lower than 20%: CC(=O)OCc1nc2sc3c(c2c(=O)n1Cc1ccccc1)CCCC3=O
no (0)

Determine whether this compound has inhibition at 10 µM no lower than 20%: COc1ccc(-c2nc3sc4c(c3c(=O)n2Cc2ccccc2)CCC(Br)(Br)C4=O)cc1
no (0)

Determine whether this compound has inhibition at 10 µM no lower than 20%: COc1ccc(-c2nc3sc4c(c3c(=O)n2Cc2ccccc2)CCCC4)cc1
no (0)

Determine whether this compound has inhibition at 10 µM no lower than 20%: CCOC(=O)c1nc2sc3c(c2c(=O)n1-c1ccccc1)CCCC3
no (0)

Determine whether this compound has inhibition at 10 µM no lower than 20%: O=C1c2sc3nc(-c4ccc(Br)s4)n(Cc4ccccc4)c(=O)c3c2CCC1(Br)Br
yes (1)

Determine whether this compound has inhibition at 10 µM no lower than 20%: O=C(OCCn1c(-c2cccs2)nc2sc3c(c2c1=O)CCC(Br)(Br)C3=O)c1cccs1
yes (1)

Determine whether this compound has inhibition at 10 µM no lower than 20%: CCCc1nc2sc3c(O)c(Br)ccc3c2c(=O)n1Cc1ccc(Br)o1
yes (1)

Determine whether this compound has inhibition at 10 µM no lower than 20%: CCCc1nc2sc3c(c2c(=O)n1Cc1ccco1)CCCC3=O
no (0)

Determine whether this compound has inhibition at 10 µM no lower than 20%: COc1c(O)cc(-c2nc3sc4c(c3c(=O)n2-c2ccccc2)CCCC4)cc1O
no (0)

Determine whether this compound has inhibition at 10 µM no lower than 20%: CCCc1nc2sc3c(OC(C)=O)cccc3c2c(=O)n1Cc1cc(Br)ccc1OC
yes (1)

Determine whether this compound has inhibition at 10 µM no lower than 20%: CCCc1nc2sc3c(c2c(=O)n1Cc1cc(Br)ccc1OC)CCC(Br)C3=O (stereo not drawn)
yes (1)

Determine whether this compound has inhibition at 10 µM no lower than 20%: COc1ccc(-c2nc3sc4c(c3c(=O)n2Cc2ccccc2)CCC(C=O)=C4Cl)cc1
no (0)

Determine whether this compound has inhibition at 10 µM no lower than 20%: COc1cccc(-c2nc3sc4c(c3c(=O)n2Cc2ccccc2)CCCC4=O)c1
yes (1)

Determine whether this compound has inhibition at 10 µM no lower than 20%: COCc1nc2sc3c(c2c(=O)n1Cc1ccccc1)CCCC3
no (0)

Determine whether this compound has inhibition at 10 µM no lower than 20%: COc1cc(-c2nc3sc4c(OC(C)=O)cccc4c3c(=O)n2CC(C)C)c(Br)c(OC)c1OC
yes (1)

Determine whether this compound has inhibition at 10 µM no lower than 20%: O=c1c2c3c(sc2nc(-c2cccs2)n1Cc1ccccc1)CCCC3
yes (1)

Determine whether this compound has inhibition at 10 µM no lower than 20%: O=C(OCCn1c(-c2cccs2)nc2sc3c(c2c1=O)CCCC3=O)c1cccs1
no (0)

Determine whether this compound has inhibition at 10 µM no lower than 20%: COc1cc(-c2nc3sc4c(OC)cccc4c3c(=O)n2CC(C)C)cc(OC)c1OC
no (0)

Determine whether this compound has inhibition at 10 µM no lower than 20%: COCCn1c(-c2cc(OC)c(OC)c(OC)c2)nc2sc3c(c2c1=O)CCCC3=O
no (0)

Determine whether this compound has inhibition at 10 µM no lower than 20%: COc1cc(-c2nc3sc4c(c3c(=O)n2CC(C)C)CCC(Br)C4=O)c(Br)c(OC)c1OC (stereo not drawn)
yes (1)

Determine whether this compound has inhibition at 10 µM no lower than 20%: CCSC1=C(CO)CCc2c1sc1nc(-c3ccc(OC)cc3)n(Cc3ccccc3)c(=O)c21
yes (1)

Determine whether this compound has inhibition at 10 µM no lower than 20%: COc1cc(-c2nc3sc4c(O)cccc4c3c(=O)n2CC(C)C)cc(OC)c1OC
yes (1)

Determine whether this compound has inhibition at 10 µM no lower than 20%: CCC(C)Cn1c(-c2cc(OC)c(OC)c(OC)c2)nc2sc3c(O)cccc3c2c1=O (stereo not drawn)
yes (1)

Determine whether this compound has inhibition at 10 µM no lower than 20%: COc1cc(-c2nc3sc4c(O)cccc4c3c(=O)n2Cc2ccc(Br)o2)cc(OC)c1OC
yes (1)

Determine whether this compound has inhibition at 10 µM no lower than 20%: O=c1c2c(nc(-c3ccc(Br)s3)n1Cc1ccccc1)sc1c(O)cccc12
yes (1)

Determine whether this compound has inhibition at 10 µM no lower than 20%: COc1cc(-c2nc3sc4c(c3c(=O)n2-c2ccccc2)CCCC4=O)cc(OC)c1OC
no (0)

Determine whether this compound has inhibition at 10 µM no lower than 20%: COc1cc(-c2nc3sc4c(c3c(=O)n2CC(C)C)CCCC4)cc(OC)c1OC
no (0)

Determine whether this compound has inhibition at 10 µM no lower than 20%: COc1cc(-c2nc3sc4c(c3c(=O)n2Cc2ccccc2)C(C)CCC4)cc(OC)c1OC (stereo not drawn)
no (0)

Determine whether this compound has inhibition at 10 µM no lower than 20%: COc1ccc(-c2nc3sc4c(c3c(=O)n2-c2ccccc2)CCCC4)cc1
no (0)

Determine whether this compound has inhibition at 10 µM no lower than 20%: CCCc1nc2sc3c(O)cccc3c2c(=O)n1Cc1cc(Br)ccc1OC
yes (1)
